Classes by log10 vapour pressure (mmHg): low class: < -4; middle class: ≥ -4 and < 0.06; high class: ≥ 0.06

compound	qualitative.label
Clc1ccccc1C(Cl)(Cl)Cl	middle class
O=C1c2ccccc2C(=O)C1C(=O)C(c1ccccc1)c1ccccc1	low class
Oc1cc(Cl)ccc1Cl	middle class
CCON=C(CC)C1=C(O)CC(c2c(C)cc(C)cc2C)CC1=O (stereo not given)	low class
CCCCCCCCCCCCN	middle class
CC(COc1ccc(Oc2ccccc2)cc1)Oc1ccccn1 (stereo not given)	low class
OCCOc1ccc(Cl)cc1Cl	middle class
C=CC1CC2C=CC1C2 (stereo not given)	high class
CC(C)NC(C)C	high class
CC(C)C(=O)O	high class
CCCCCCCCCCCCCCCC(=O)OC(C)C	low class
CC(=O)OCCC(C)C	high class

* * *

Consider the following compounds and their measured melting point readings.

compound	melting point, °C
CCCCCCCCCCCCCCCCCCCCCCCCCCCCCCCCCCCCCCCCCCCC	87.5
c1ccc2c(c1)c(Cc1cn(CN3CCCCC3)c3ccccc13)cn2CN1CCCCC1	138
O=C(O)CCCCCl	18
Cc1c([N+](=O)[O-])c(C)c([N+](=O)[O-])c(C(C)(C)C)c1[N+](=O)[O-]	110
Cc1cc(N)ccc1N	64
CCCCCCCCCCCCCCCCCBr	32
CCCCCCNC(=O)n1cc(F)c(=O)[nH]c1=O	110
O=C(O)CCOc1ccccc1	97.5
O[C@@H]1[C@H]2CC[C@H](C2)[C@@H]1O	139
C[C@@H]1CCCC[C@@H]1C (racemic)	-70
ClCCOCCOCCCl	-31.5
c1ccc2cnncc2c1	90.5
Cc1ccc(CC#N)cc1	18
CN(C(=O)CN(CCO)CC(=O)N(C)C(C)(C)Cc1ccccc1)C(C)(C)Cc1ccccc1	104
c1ccc2c(Nc3cccc4ccccc34)cccc2c1	115
c1ccc2oc(-c3ccc(-c4nc5ccccc5o4)s3)nc2c1	219
CCCn1cnc2c1c(=O)n(CCCCC(C)=O)c(=O)n2C	69
CCCCCCCCCc1ccccc1	-24
CCCCC/C=C\C/C=C\C/C=C\C/C=C\CCCC(=O)O	-49.5
O=C(O)[C@H](O)[C@@H](O)[C@H](O)[C@H](O)C(O)CO (some centres not stated)	146
COc1ccc2c3c([nH]c2c1)[C@H]1C[C@H]2[C@H](C[C@@H](O)[C@H](OC)[C@H]2C(=O)O)CN1CC3	242
Oc1ccc2ncccc2c1	195
CC1(C)C2CC3C(C2)C31C	67.5
CC(C)C(C(=O)OC(C#N)c1cccc(Oc2ccccc2)c1)c1ccc(Cl)cc1 (configuration not stated)	52.2
CNC[C@H](O)[C@@H](O)[C@H](O)[C@H](O)CO	128
CC(C)(C)C(C)(C)O	17
O=C(CCCN1CCC(n2c(=O)[nH]c3ccccc32)CC1)c1ccc(F)cc1	171

* * *

melting point below 100 °C gives not satisfied; melting point at or above it gives satisfied.

smiles.str	qualitative.label
Cc1cnc2c(ccc3c(C)c(C)cnc32)c1C	satisfied
c1ccc(CN(Cc2ccccc2)c2ccccc2)cc1	not satisfied
C=CC(CC)CC	not satisfied
C[N+]1(CCC(C(N)=O)(c2ccccc2)c2ccccc2)CCCCC1.[Br-]	satisfied
Cc1cc(C(C)(C)C)cc(C)c1CC1=NCCN1	satisfied
CC/C(=C(/CC)c1ccc(OC)cc1)c1ccc(OC)cc1	satisfied
OC1CCCCCCCCCCCCCC1	not satisfied

* * *

boiling point below 200 °C gives no; boiling point at or above it gives yes.

compound	qualitative.label
CC(S)CS (configuration not stated)	no
COc1cc(OC)cc(OC)c1	yes
CC1=CCC(O)(C(C)C)CC1 (configuration not stated)	yes
CCOC(=O)C=CCC(=O)OCC	yes
CC(C)=CC(=O)Cl	no
CC(=O)c1ccccc1C	yes
COc1cc(C=O)ccc1O	yes
CCOc1cc(C=O)ccc1O	yes
CC1CC(=O)C(C)(C)C1 (configuration not stated)	no
Cc1ccc(O)c(C)c1C	yes
CCCCCOC=O	no
COC(C)CCO (configuration not stated)	no
FC(F)(F)C1(F)OC1(F)F (configuration not stated)	no
O=[N+]([O-])Cc1ccccc1	yes
c1ccc(-c2ccc3ccccc3n2)cc1	yes
O=C(O)C(F)(F)C(F)(F)C(F)(F)F	no
FC(F)OC(F)F	no

* * *

Consider the following molecules and their measured boiling point readings.

molecule	unit.spec	boiling point
Cc1cc(C(C)(C)C)cc(C)c1O	°C	248
Cc1cc(C)c(C(C)C)cc1C	°C	221
Cc1ccc2cc(C)ccc2c1	°C	262
CCCCCC1=CCCC1	°C	179
CCOC(=O)CCC(C)CC (configuration not stated)	°C	180
Clc1cc(Cl)c(C(Cl)Cl)cc1Cl	°C	280
CC(C)CC(=O)CC(C)C	°C	169
CCC(C)(CC)CC(C)C	°C	161
CC1CCCC(C)C1O (configuration not stated)	°C	176
CCCCCCCC(=O)OCCCCCC	°C	277
CC(Br)C(C)(Br)Br (configuration not stated)	°C	206
FC(F)(F)C1(F)C(F)(F)C(F)(F)C(F)(C(F)(F)F)C(F)(F)C1(F)F (configuration not stated)	°C	100
C#CCCCO	°C	154
C=CC(=C)CCC=C(C)C	°C	167
CC1Cc2ccccc2O1 (configuration not stated)	°C	198
Brc1ccsc1Br	°C	218
Cc1cc[nH]c(=O)c1	°C	308
CC(C)(I)I	°C	173
CC(C)CC(O)C(C)C (configuration not stated)	°C	158
O=C(CCC(=O)Oc1ccccc1)Oc1ccccc1	°C	330
C=C(C)Cl	°C	22.6
CCCCCCCC	°C	126
CCOC(=O)[C@H](C)Cl	°C	147
C#CC=O	°C	60
CC(O)=S	°C	93
C=Cc1ccc(C)nc1	°C	181
C1CCC(CCCCC2CCCCC2)CC1	°C	305
CC1CC(C)NC(C)C1 (configuration not stated)	°C	145
CNC	°C	6.8
CCCOC=O	°C	80.9
Nc1ccc(Cc2ccc(N)cc2)cc1	°C	398
Cc1cc(N)ccc1N	°C	274
Cc1coc(C)n1	°C	108
CC(C)CCCl	°C	98.9
CCc1c(C)c[nH]c1C	°C	199
CCOc1ccccc1C=O	°C	248
CN(C)CC(O)CN(C)C	°C	182

* * *

Consider the following molecules and their measured melting point readings.

molecule	melting point / °C
Cc1cccc2ccoc12	109
COCCOc1c(OC)cc(Cc2cnc(N)nc2N)cc1OC	154
CC(F)(F)F	-111
CC[C@@H](O)[C@@H]1CCCCN1	121
c1ccc2cc(-c3ccc4ccccc4c3)ccc2c1	188
Oc1ccc(O)c(O)c1	140
O=Cc1cc([N+](=O)[O-])ccc1O	129
Nc1ccc(S(=O)(=O)c2ccc(NCCO)cc2)cc1	131
CC1=C(CC(=O)O)c2cc(F)ccc2/C1=C\c1ccc(S(C)=O)cc1 (centres undefined)	183
CC(C)Oc1ccc(C(=O)NS(=O)(=O)c2ccc(N)cc2)cc1	172
Clc1ccc(Cl)c(-c2ccc(Cl)c(Cl)c2)c1	106
COc1ccc(-c2coc3cc(O)ccc3c2=O)cc1	256
COc1ccc2ccc(=O)oc2c1CC=C(C)C	83.5
CCOC(=O)NNC(=O)OCC	135

* * *

Consider the following compounds and their measured melting point readings.

compound	melting point
C=CCCC=C	-141 °C
COC(=O)c1ccc(OC)c(OC)c1	60.8 °C
Nc1ncc2ncn(COCCO)c2n1	189 °C
CCOc1ccc2nc3cc(N)ccc3c(N)c2c1	226 °C
O=C(C=Cc1ccccc1)NCCO	101 °C
O=C(/C=C/c1cccc([N+](=O)[O-])c1)c1ccccc1	146 °C
CC(C)CCCCCCO	64.5 °C
Cc1cc(C(C)(C)C)c(O)c(C)c1CC1=NCCN1	182 °C
c1ccc(CN(CC2=NCCN2)c2ccccc2)cc1	120 °C
CCCCCC1C(=O)CCC1CC(=O)OC (configuration not stated)	-10 °C
COc1ccc(C[C@H]2c3cc(OC)c(OC)cc3CCN2C)cc1OC	89 °C
Oc1c(Cl)cc(Cl)c2cccnc12	180 °C
CC(C)(C)C	-16.4 °C
CC1CCCC1(C)C (configuration not stated)	-21.6 °C
CC(C)=C1OC(=O)C1(C)C	-18 °C
Cc1ccc(C(=O)O)c(C)c1	90 °C
ClCCOCCCl	-51.9 °C
O=C1C=CC2(CCC23C=CC(=O)O3)O1 (configuration not stated)	158 °C
CCCCC(C(N)=O)n1nnc2ccccc21 (configuration not stated)	118 °C
CC(C)(CO)CO	130 °C
O=C(c1ccc(F)cc1)C1CCN(CCn2c(=O)[nH]c3ccccc3c2=O)CC1	231 °C
FC(Cl)=C(Cl)Cl	-109 °C
O=P(OC(CCl)CCl)(OC(CCl)CCl)OC(CCl)CCl	27 °C
CCN(CC)CCOC(=O)C(O)(c1ccccc1)c1ccccc1.Cl	178 °C
CC(=O)Oc1c(C)cc(OCC(O)CNC(C)C)c(C)c1C (configuration not stated)	106 °C
O=NN1CCC[C@H]1c1cccnc1	47 °C
COC(=O)c1cccc(O)c1	73 °C
O=C(O)CCCOc1ccc(Cl)cc1Cl	118 °C
Nc1cc(-c2ccccc2)ccc1O	200 °C
Cc1cc(=O)oc2cc(O)ccc12	196 °C
C=CC(=C)C	-146 °C
CCCCC(C)CCCC	-87.7 °C
